Reference source: patent US12662489B2

Molecular target: MTHFD2 recombinant human enzyme (Homo sapiens)
Sequence (P13995 36-350): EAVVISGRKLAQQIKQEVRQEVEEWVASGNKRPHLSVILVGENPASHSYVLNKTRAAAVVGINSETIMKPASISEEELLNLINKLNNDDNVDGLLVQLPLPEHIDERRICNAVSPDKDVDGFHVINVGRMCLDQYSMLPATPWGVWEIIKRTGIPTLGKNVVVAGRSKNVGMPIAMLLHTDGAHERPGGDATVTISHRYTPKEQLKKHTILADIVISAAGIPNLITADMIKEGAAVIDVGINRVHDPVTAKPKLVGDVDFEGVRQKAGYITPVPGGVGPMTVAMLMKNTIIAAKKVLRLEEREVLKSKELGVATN
Assay: MTHFD2 inhibition assay (NAD(P)H-Glo luminescence)

COMPOUND: COC[C@H]1CN(c2ccc3c4c(c(=O)oc3c2C)CN(C(=O)c2cc(Cl)c(C(=O)NS(=O)(=O)N(C)C)c(N3CC5CC5C3)c2)CC4)CCN1C (stereo partly drawn)
IC50: 10 to 100 nM

COMPOUND: COC[C@H]1CN(c2cc(C)c3c4c(c(=O)oc3c2C)CN(C(=O)c2ccc(C(=O)NS(=O)(=O)N3CCCC3)c(OC3CCC(F)(F)CC3)c2)CC4)CCN1C
IC50: 10 to 100 nM

COMPOUND: COC[C@H]1CN(c2cc(Cl)c3c4c(c(=O)oc3c2C)CN(C(=O)c2cc(N(C)C)c(C(=O)NS(=O)(=O)N(C)C)cc2Cl)CC4)CCN1C
IC50: 10 to 100 nM

====

Biological target: MTHFD1 recombinant human enzyme (Homo sapiens, UniProt P11586)
Experiment: MTHFD1 inhibition assay (NAD(P)H-Glo luminescence)
Conditions: MTHFD1 IC50, recombinant human enzyme 200 nM, NADP, band
pIC50: −log10 of the molar value.
molecules and their reported pIC50

MOLECULE: COC[C@H]1CN(c2cc(C)c3c4c(c(=O)oc3c2C)CN(C(=O)c2ccc(C(=O)NS(=O)(=O)N3CCCC3)c(OC3CCC(F)(F)CC3)c2)CC4)CCN1C [Example 99]
pIC50: 7.00 to 8.00

MOLECULE: COC[C@H]1CN(c2cc(C)c3c4c(c(=O)oc3c2C)CN(C(=O)c2ccc(C(=O)NS(=O)(=O)C3(C)CC3)c(N3CCC(F)(F)C3)c2)CC4)CCN1C [Example 81]
pIC50: 7.00 to 8.00

MOLECULE: COC[C@H]1CN(c2cc(C)c3c4c(c(=O)oc3c2C)CN(C(=O)c2cc(N3CCCC3)c(C(=O)NS(=O)(=O)C3(C)CC3)cc2F)CC4)CCN1C [Example 142]
pIC50: 7.00 to 8.00

====

Biological target: MTHFD2 recombinant human enzyme (Homo sapiens, UniProt P13995)
Sequence (P13995 36-350): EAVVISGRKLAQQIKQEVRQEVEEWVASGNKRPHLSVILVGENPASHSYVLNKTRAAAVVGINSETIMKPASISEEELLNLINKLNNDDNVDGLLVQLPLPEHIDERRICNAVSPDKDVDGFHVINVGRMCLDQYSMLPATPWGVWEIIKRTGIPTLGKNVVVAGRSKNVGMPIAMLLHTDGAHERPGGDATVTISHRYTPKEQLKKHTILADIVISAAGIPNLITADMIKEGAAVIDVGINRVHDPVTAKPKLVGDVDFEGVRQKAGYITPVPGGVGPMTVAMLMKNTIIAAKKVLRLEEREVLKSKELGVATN
Test: MTHFD2 inhibition assay (NAD(P)H-Glo luminescence)
Settings: selectivity of MTHFD2 inhibition over MTHFD1, band

COMPOUND: COC[C@H]1CN(c2ccc3c4c(c(=O)oc3c2C)CN(C(=O)c2cc(N3CC5CC5C3)c(C(=O)NS(=O)(=O)N3CCCC3)c(C(F)(F)F)c2)CC4)CCN1C (some centres unmarked)
MTHFD1/MTHFD2 IC50 ratio: G (^ 3 to 9.0)
--
COMPOUND: COC[C@H]1CN(c2ccc3c4c(c(=O)oc3c2C)CN(C(=O)c2ccc(C(=O)NS(=O)(=O)N3C5CCC3CC5)c(OC3CCC3)c2F)CC4)CCN1C
MTHFD1/MTHFD2 IC50 ratio: F (<3)
--
COMPOUND: COC[C@H]1CN(c2cc(Cl)c3c4c(c(=O)oc3c2C)CN(C(=O)c2cc(N(C)C)c(C(=O)NS(=O)(=O)N(C)C3CC3)cc2F)CC4)CCN1C
MTHFD1/MTHFD2 IC50 ratio: J (>30)
--
COMPOUND: COC[C@H]1CN(c2ccc3c4c(c(=O)oc3c2C)CN(C(=O)c2cc(OC3CCCC3)c(C(=O)NS(=O)(=O)N3CCCC3)c(C(F)(F)F)c2)CC4)CCN1C
MTHFD1/MTHFD2 IC50 ratio: G (^ 3 to 9.0)
--
COMPOUND: COC[C@H]1CN(c2ccc3c4c(c(=O)oc3c2C)CN(C(=O)c2ccc(C(=O)NS(=O)(=O)N(C)C)c(O[C@@H]3C[C@@H]5C[C@@H]5C3)c2F)CC4)CCN1C
MTHFD1/MTHFD2 IC50 ratio: F (<3)
--
COMPOUND: COC[C@H]1CN(c2cc(C)c3c4c(c(=O)oc3c2C)CN(C(=O)c2cc(OC(C)C)c(C(=O)NS(=O)(=O)N3CCCC3)c(C(F)(F)F)c2)CC4)CCN1C
MTHFD1/MTHFD2 IC50 ratio: J (>30)
--
COMPOUND: COC[C@H]1CN(c2cc(C)c3c4c(c(=O)oc3c2C)CN(C(=O)c2ccc(C(=O)NS(=O)(=O)N3C5CCC3CC5)c(OC3CC3)c2F)CC4)CCN1C
MTHFD1/MTHFD2 IC50 ratio: G (^ 3 to 9.0)
--
COMPOUND: CCOc1cc(C(=O)N2CCc3c(c(=O)oc4c(C)c(N5CCN(C)[C@@H](COC)C5)cc(Cl)c34)C2)c(F)cc1C(=O)NS(=O)(=O)N1CC2CCC(C1)O2
MTHFD1/MTHFD2 IC50 ratio: J (>30)
--
COMPOUND: COC[C@H]1CN(c2cc(C)c3c4c(c(=O)oc3c2C)CN(C(=O)c2ccc(C(=O)NS(=O)(=O)N3CCCC3)c(OC(C)C)c2F)CC4)CCN1C
MTHFD1/MTHFD2 IC50 ratio: F (<3)
--
COMPOUND: CCOc1c(C(=O)NS(=O)(=O)N2C3CCC2CC3)ccc(C(=O)N2CCc3c(c(=O)oc4c(C)c(N5CCN(C)[C@@H](COC)C5)cc(C)c34)C2)c1F
MTHFD1/MTHFD2 IC50 ratio: G (^ 3 to 9.0)

====

Target: MTHFD1 recombinant human enzyme (Homo sapiens, UniProt P11586)
Sequence (P11586 2-291 limits assumed): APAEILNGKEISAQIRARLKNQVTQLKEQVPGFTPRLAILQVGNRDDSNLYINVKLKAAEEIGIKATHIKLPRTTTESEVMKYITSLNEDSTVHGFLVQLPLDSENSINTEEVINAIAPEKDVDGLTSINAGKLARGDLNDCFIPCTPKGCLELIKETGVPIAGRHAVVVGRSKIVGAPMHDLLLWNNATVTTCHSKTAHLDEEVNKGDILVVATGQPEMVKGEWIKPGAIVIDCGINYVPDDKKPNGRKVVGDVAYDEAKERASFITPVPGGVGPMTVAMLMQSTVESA
Assay: MTHFD1 inhibition assay (NAD(P)H-Glo luminescence)
Details: MTHFD1 IC50, recombinant human enzyme 200 nM, NADP, band
Collected IC50 values appear next to each entry.
MEASUREMENT KIND: IC50

COMPOUND: COC[C@H]1CN(c2ccc3c4c(c(=O)oc3c2C)CN(C(=O)c2ccc(C(=O)NS(=O)(=O)N(C)C(C)C)c(O[C@@H]3C[C@@H]5C[C@@H]5C3)c2F)CC4)CCN1C
MEASUREMENT KIND: IC50
RESULT: 1 to 10 nM
//
COMPOUND: CCOc1c(C(=O)NS(=O)(=O)N2CCCCC2)ccc(C(=O)N2CCc3c(c(=O)oc4c(C)c(N5CCN(C)[C@@H](COC)C5)ccc34)C2)c1F
MEASUREMENT KIND: IC50
RESULT: 100 to 1000 nM
//
COMPOUND: COC[C@H]1CN(c2cc(C)c3c4c(c(=O)oc3c2C)CN(C(=O)c2ccc(C(=O)NS(=O)(=O)N3CCCC3)c(OC3CCC3)c2F)CC4)CCN1C
MEASUREMENT KIND: IC50
RESULT: 10 to 100 nM
//
COMPOUND: COC[C@H]1CN(c2cc(C)c3c4c(c(=O)oc3c2C)CN(C(=O)c2ccc(C(=O)NS(=O)(=O)C3(C)CC3)c(N3CC5CC5C3)c2F)CC4)CCN1C (stereo partly shown)
MEASUREMENT KIND: IC50
RESULT: 10 to 100 nM
//
COMPOUND: COC[C@H]1CN(c2cc(Cl)c3c4c(c(=O)oc3c2C)CN(C(=O)c2cc(N(C)C)c(C(=O)NS(=O)(=O)N3CCC[C@H]3C(F)(F)F)cc2F)CC4)CCN1C
MEASUREMENT KIND: IC50
RESULT: 1000 to 5000 nM
//
COMPOUND: COC[C@H]1CN(c2ccc3c4c(c(=O)oc3c2Cl)CN(C(=O)c2ccc(C(=O)NS(=O)(=O)N3CCCC3)c(OC3CCC3)c2)CC4)CCN1C
MEASUREMENT KIND: IC50
RESULT: 10 to 100 nM
//
COMPOUND: CCN1CCN(c2ccc3c4c(c(=O)oc3c2C)CN(C(=O)c2ccc(C(=O)NS(=O)(=O)N3CCCC3)c(OC3CCC3)c2F)CC4)C[C@@H]1COC
MEASUREMENT KIND: IC50
RESULT: 10 to 100 nM
//
COMPOUND: COC[C@H]1CN(c2cc(C)c3c4c(c(=O)oc3c2C)CN(C(=O)c2ccc(C(=O)NS(=O)(=O)C3(C)CC3)c(OC3CCC3)c2F)CC4)CCN1C
MEASUREMENT KIND: IC50
RESULT: 1 to 10 nM
//
COMPOUND: COC[C@H]1CN(c2cc(C)c3c4c(c(=O)oc3c2C)CN(C(=O)c2ccc(C(=O)NS(=O)(=O)N3C5CCC3CC5)c(OC)c2)CC4)CCN1C
MEASUREMENT KIND: IC50
RESULT: 100 to 1000 nM
//
COMPOUND: COC[C@H]1CN(c2cc(C)c3c4c(c(=O)oc3c2C)CN(C(=O)c2ccc(C(=O)NS(=O)(=O)N3CCC5(CC3)CC5)c(OC)c2F)CC4)CCN1C
MEASUREMENT KIND: IC50
RESULT: 100 to 1000 nM
//
COMPOUND: COC[C@H]1CN(c2ccc3c4c(c(=O)oc3c2C)CN(C(=O)c2cc(F)c(C(=O)NS(=O)(=O)C3(C)CC3)c(N3CC5CC5C3)c2)CC4)CCN1C (stereo partly shown)
MEASUREMENT KIND: IC50
RESULT: 1 to 10 nM
//
COMPOUND: COC[C@H]1CN(c2ccc3c4c(c(=O)oc3c2C)CN(C(=O)c2cc(Cl)c(C(=O)NS(=O)(=O)N(C)C)c(N3C5CCC3CC5)c2)CC4)CCN1C
MEASUREMENT KIND: IC50
RESULT: 10 to 100 nM
//
COMPOUND: CCOc1c(C(=O)NS(=O)(=O)N2CC3CCC2C3)ccc(C(=O)N2CCc3c(c(=O)oc4c(C)c(N5CCN(C)[C@@H](COC)C5)ccc34)C2)c1F (stereo partly shown)
MEASUREMENT KIND: IC50
RESULT: 100 to 1000 nM
//
COMPOUND: COC[C@H]1CN(c2cc(C)c3c4c(c(=O)oc3c2C)CN(C(=O)c2ccc(C(=O)NS(=O)(=O)N3CCCC3)c(F)c2)CC4)CCN1C
MEASUREMENT KIND: IC50
RESULT: 100 to 1000 nM
//
COMPOUND: CCOc1c(C(=O)NS(=O)(=O)N2C[C@H]3CCC[C@H]3C2)ccc(C(=O)N2CCc3c(c(=O)oc4c(C)c(N5CCN(C)[C@@H](COC)C5)cc(C)c34)C2)c1F
MEASUREMENT KIND: IC50
RESULT: 10 to 100 nM
//
COMPOUND: COC[C@H]1CN(c2cc(C)c3c4c(c(=O)oc3c2C)CN(C(=O)c2ccc(C(=O)NS(=O)(=O)N3CCCC3)c(N3CCC(F)(F)C3)c2)CC4)CCN1C
MEASUREMENT KIND: IC50
RESULT: 10 to 100 nM
//
COMPOUND: CCOc1cc(C(=O)N2CCc3c(c(=O)oc4c(C)c(N5CCN(C)[C@@H](COC)C5)cc(C)c34)C2)c(F)cc1C(=O)NS(=O)(=O)N1CC2CC2C1 (stereo partly shown)
MEASUREMENT KIND: IC50
RESULT: 10 to 100 nM
//
COMPOUND: CCOC[C@H]1CN(c2ccc3c4c(c(=O)oc3c2C)CN(C(=O)c2ccc(C(=O)NS(=O)(=O)N3CCCC3)c(OC3CCC3)c2F)CC4)CCN1C
MEASUREMENT KIND: IC50
RESULT: 100 to 1000 nM
//
COMPOUND: COC[C@H]1CN(c2cc(Cl)c3c4c(c(=O)oc3c2C)CN(C(=O)c2cc(N(C)C)c(C(=O)NS(=O)(=O)N3C5CCC3COC5)cc2F)CC4)CCN1C
MEASUREMENT KIND: IC50
RESULT: 1000 to 5000 nM
//
COMPOUND: COC[C@H]1CN(c2cc(C)c3c4c(c(=O)oc3c2C)CN(C(=O)c2ccc(C(=O)NS(=O)(=O)N(C)C)c(OC3CCC(F)(F)CC3)c2F)CC4)CCN1C
MEASUREMENT KIND: IC50
RESULT: 1 to 10 nM
//
COMPOUND: COC[C@H]1CN(c2ccc3c4c(c(=O)oc3c2C)CN(C(=O)c2ccc(C(=O)NS(=O)(=O)C3(C)CC3)c(N3C5CCC3CC5)c2)CC4)CCN1C
MEASUREMENT KIND: IC50
RESULT: 1 to 10 nM
//
COMPOUND: COC[C@H]1CN(c2cc(F)c3c4c(c(=O)oc3c2C)CN(C(=O)c2cc(OC)c(C(=O)NS(=O)(=O)N3C5CCC3CC5)cc2F)CC4)CCN1C
MEASUREMENT KIND: IC50
RESULT: 1000 to 5000 nM
